Target: T1, human DKK1 (human, UniProt O94907 32-266)
T1 sequence: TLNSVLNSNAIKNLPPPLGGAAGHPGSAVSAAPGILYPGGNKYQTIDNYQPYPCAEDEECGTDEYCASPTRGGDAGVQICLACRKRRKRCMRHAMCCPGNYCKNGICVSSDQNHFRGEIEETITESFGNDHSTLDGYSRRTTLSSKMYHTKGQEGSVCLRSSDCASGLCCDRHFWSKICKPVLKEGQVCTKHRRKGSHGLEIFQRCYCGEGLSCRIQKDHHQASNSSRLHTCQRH
Test: cell-based or functional assay
Rule: ST2 EC50 below 6 nM gives MET. Equal to or above 6 nM gives NOT MET.

{"binder": "2.20.1 (antibody, V domains shown, Fully human hybridoma IgG, kappa (Vk)) VH: QVQLVESGGGVVQPGRSLRLSCAASGFTFSSYGMHWVRQAPGKGLEWVAVISYDGSDKYYADSVKGRFTISRDNSKNTLYLQMNSLRAEDTAVYYCARDQWGGSPAGPWGQGTLVTVSS VL: DIVMTQTPLSLSVIPGQPASISCKSSQSLLHSDGKTYLYWYLQRPGQPPQLLIYEVSNRFSGVPHRLSGSGSGTDFTLKISRVEAEDVGVYYCMQSIQVPWTFGQGTKVEIK", "cat": "NOT MET"}
{"binder": "6.139.5 (antibody, V domains shown, Fully human hybridoma IgG, kappa (Vk)) VH: QVQLVESGGGVVQPGRSLRLSCAASGFTFSSYGMHWVRQAPGKGLEWVAVISYDGGDQYYADSVKGRFTISRDNSKNTLYLQMNSLRTEDTAEYYCARELRVLWGQGTLVTVSS VL: DIVMTQTPLSLSVTPRQPASISCKSSQSLLHSDGKTYLYWYLQKPGQPPQFLIYEVSNRFSGVPDRFSGSGSGTDFTLKISRVEAEDVGVYYCMQSIQLPWTFGQGTKVEIK", "cat": "MET"}
{"binder": "5.40.1 (antibody, V domains shown, Fully human hybridoma IgG, kappa (Vk)) VH: QVLLQESGPGLVKPSETLSLTCTVSGGSISSYYWSWIRQTPGKGLEWIGYVYYSGSTSYNPSLKSRVTISMYTSKTEFSLKLSSVTAADTAVYYCARYNWNNDLFDYWGQGTLVTVSS VL: DIRLTQSPSSLSASVGDRVTITCQASQDISNYLNWYQQEPGKAPKLLIYDASNLETGVPSRFSGSGSGTDFTFTISSLQPEDIATYYCQQYDNFPLTFGGGTKVEIK", "cat": "NOT MET"}
{"binder": "5.31.1 (antibody, V domains shown, Fully human hybridoma IgG, kappa (Vk)) VH: QVQLVESGGGVVQPGRSLRLSCAASGFTFSSYGMHWVRQAPGKGLEWVAVIWYDGRNKYYADSVKGRFTISRDNSKNTLYLQMNSLRAEDTAVYYCARGGGAVADYNYYYGMDVWGQGTTVTVSS VL: DIQVTQSPSSLSASVGDRVTITCQASQDISNYLNWYQQKPGKAPKFLIYDASNLEAGVPSRFSGSGSGTDFTFTISSLQPEDIATYYCQQYDNLPLTFGGGTKVEIK", "cat": "NOT MET"}
{"binder": "2.40.1 (antibody, V domains shown, Fully human hybridoma IgG, kappa (Vk)) VH: QVQLVESGGGVVQPGRSLRLSCAASGFTFSSYGMHWVRQAPGKGLGWVAVISYDGSDKYYADSVKGRFTISRDNSKNTLYLQMNSLRAEDTAVYYCARDLVDTAMPWGQGTTVTVSS VL: DIVMTQSPLSLSVTPGQPASISCKSSQSLLHSDGKTYLYWYLQKPGQPPQLLIYEVSNRFSGVPDRFSGSGSGTDFTLKISRVEAEDVGVYYCMQSIQVPWTFGQGTKVEIK", "cat": "MET"}
{"binder": "6.147.4 (antibody, V domains shown, Fully human hybridoma IgG, lambda (Vl)) VH: QVQLVESGGGVVQPGRSLRLSCAASGFTFSRYDMHWVRQAPGKGLEWVAIIFYDGSNKYYADPVKGRFTISRDNSKNTLYLQMNSLRAEDTAVYYCATLAAAFDYWGQGTLVTVSS VL: YVLTQPPSVSVAPGQTARITCGGNNIGSKSVHWYQQKPGQAPVLVVYDDSDRPSEIPERFSGSNSGNTATLTISRVEAGDEADYYCQVWDSSSDHVVFGGGTRLTVL", "cat": "MET"}
{"binder": "5.85.1 (antibody, V domains shown) VH: EVQLVQSGAEVKKPGESLKISCKVSGYSFTTYWIGWVRQMPGKGLDWMGIIYPGDSDTRYSPSFQGQVTISADKSISTAYLQWSSLKASDTAMYYCARQGIAFDYWGQGTLVTVSS VL: QSVLTQPPSVSGAPGQRVTISCTGSSSNIGAGYDVHWYQQLPRTAPKLLIYGNSNRPSGVPDRFSDSKSGTSASLAITGLQAEDEADYYCQSYDSSLSVIFGGGTKLTVL", "cat": "NOT MET"}
{"binder": "2.41.1 (antibody, V domains shown, Fully human hybridoma IgG, kappa (Vk)) VH: QVQLVESGGGVVQPGRSLRLSCAASGFTFSSYGMHWVRQAPGKGLEWVAVISYDGSDKYYADSVKGRFTISRDNSKNTLYLQMNSLRAEDTAVYYCARAGYSLYYYYGMDVWGQGTTVTVSS VL: DIVMTQTPLSLSVTPGQPASISCKSSQSLLHSDGKTYLYWYLQKPGQPPQLLIYEVSNRFSGVPDRFSGSGSGTDFTLKISRVEAEDVGVYYCMQSKQLPFTFGPGTKVDIK", "cat": "NOT MET"}
{"binder": "5.77.1 (antibody, V domains shown, Fully human hybridoma IgG, lambda (Vl)) VH: QVQLVQSGAEVKKPGASVKVSCKASGYTFTSYDINWVRQATGQGLEWMGWMNLNSDNTGYAQKFQGRVTMTRNTSISTAYMELSSLRSEDTAVYYCASIAARRDYNYYGMDVWGQGTKVTVSS VL: QSPSVSVAPGQTARITCGGNNIGSKSVHWYQQKPGQAPVLVVYDDSDRPSGIPERFSGSNSGNTATLTISRVEAGDEADYYCQVWDSSSDHWVFGGGTKLTVL", "cat": "NOT MET"}
{"binder": "5.78.1 (antibody, V domains shown, Fully human hybridoma IgG, kappa (Vk)) VH: QVQLVESGGGVVQPGRSLRLSCAASGFTFSSYGMHWVRQAPGKGLEWVAVILYDGSDNYYADSVKGRFTISRDNSKNTLYLQMNSLRAEDTAVYYCAREGIAVAGDYYYYGMDVWGQGTTVTVSS VL: EIVLTQSPGTLSVSPGERATLSCRASQSVSSSYLAWYQQKPGQAPRLLIYGASGRATGIPDRFSGSGSGTDFILTISRLEPEDFAVYYCQQYGSSFTFGGGTKVEIK", "cat": "MET"}
